TARGET_ENTITY: von Hippel-Lindau disease tumor suppressor/Bcl-2-like protein 1 (Homo sapiens, UniProt Q07817+P40337)
Sequence (P40337 whole entry, looked up): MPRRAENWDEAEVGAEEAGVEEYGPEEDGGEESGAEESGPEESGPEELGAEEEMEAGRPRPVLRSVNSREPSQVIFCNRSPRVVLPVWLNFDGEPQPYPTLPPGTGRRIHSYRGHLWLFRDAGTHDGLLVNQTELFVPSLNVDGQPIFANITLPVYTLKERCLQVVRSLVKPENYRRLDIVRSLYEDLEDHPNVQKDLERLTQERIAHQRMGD
Sequence (Q07817 whole entry, looked up): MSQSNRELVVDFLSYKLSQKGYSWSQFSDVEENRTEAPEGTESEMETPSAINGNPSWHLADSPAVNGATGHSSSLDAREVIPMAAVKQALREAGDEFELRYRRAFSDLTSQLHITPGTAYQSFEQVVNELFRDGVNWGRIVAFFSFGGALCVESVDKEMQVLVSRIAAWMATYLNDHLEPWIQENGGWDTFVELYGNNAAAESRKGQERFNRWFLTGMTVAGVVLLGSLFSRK
ASSAY_COMMENT: Binding affinity to Halo-tagged VHL/HiBiT-tagged BCL-XL (unknown origin) expressed in HEK293T cells assessed as ternary complex formation at up to 100000 nM measured after 6 hrs by NanoBRET assay
Type: cell-based
Activity calls are given as the source filed them. The rule behind the calls is not given here.
OBSERVATION_TYPE: Activity

- COMPOUND: "Cc1ncsc1-c1ccc([C@H](C)NC(=O)[C@@H]2C[C@@H](O)CN2C(=O)[C@@H](NC(=O)CCCCCCCCC(=O)NCC2(C)CCC(c3ccc(Cl)cc3)=C(CN3CCN(c4ccc(C(=O)NS(=O)(=O)c5ccc(N[C@H](CCN6CCOCC6)CSc6ccccc6)c(S(=O)(=O)C(F)(F)F)c5)cc4)CC3)C2)C(C)(C)C)cc1 (some centres undefined)"
  OBSERVATION_TYPE: "Activity"
  OBSERVED_VALUE: "Active"
- COMPOUND: "Cc1ncsc1-c1ccc([C@H](C)NC(=O)[C@@H]2C[C@@H](O)CN2C(=O)[C@@H](NC(=O)CCCCCCCCC(=O)NC[C@@]2(C)CCC(c3ccc(Cl)cc3)=C(CN3CCN(c4ccc(C(=O)NS(=O)(=O)c5ccc(N[C@H](CCN6CCOCC6)CSc6ccccc6)c(S(=O)(=O)C(F)(F)F)c5)cc4)CC3)C2)C(C)(C)C)cc1"
  OBSERVATION_TYPE: "Activity"
  OBSERVED_VALUE: "Active"
- COMPOUND: "Cc1ncsc1-c1ccc([C@H](C)NC(=O)[C@@H]2C[C@@H](O)CN2C(=O)[C@@H](NC(=O)CCCCCCCCC(=O)NC[C@]2(C)CCC(c3ccc(Cl)cc3)=C(CN3CCN(c4ccc(C(=O)NS(=O)(=O)c5ccc(N[C@H](CCN6CCOCC6)CSc6ccccc6)c(S(=O)(=O)C(F)(F)F)c5)cc4)CC3)C2)C(C)(C)C)cc1"
  OBSERVATION_TYPE: "Activity"
  OBSERVED_VALUE: "Active"
